Subject Of Test: Cathepsin K (Homo sapiens, UniProt P43235)
Sequence (P43235 115-329): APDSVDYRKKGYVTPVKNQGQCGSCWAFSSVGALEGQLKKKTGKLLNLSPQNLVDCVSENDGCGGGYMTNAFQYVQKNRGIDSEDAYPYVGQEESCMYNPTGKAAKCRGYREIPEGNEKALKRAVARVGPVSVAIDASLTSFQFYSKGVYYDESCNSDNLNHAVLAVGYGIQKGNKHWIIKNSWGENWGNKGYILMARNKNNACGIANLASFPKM
Experiment Notes: Cathepsin K inhibition, fluorogenic peptide substrate kinetic assay (selectivity)
Type: biochemical
Run Conditions: ratio of cathepsin K inhibition constant to cathepsin S inhibition constant
Experimental Endpoint: Selectivity for Cat. S over Cat. K

Below, each entry is followed by its recorded Selectivity for Cat. S over Cat. K result.
[
  {
    "Compound": "C[C@@H](CNc1ccc(OC(F)(F)F)cc1)NC(=O)[C@@H](CC(=O)N1CCOCC1)CC1CCCCC1",
    "Subject Of Test": "Cathepsin K (Homo sapiens, UniProt P43235)",
    "Experimental Endpoint": "Selectivity for Cat. S over Cat. K",
    "Test Value": "++ (++, >100)"
  },
  {
    "Compound": "CC(C)[C@@H](CN1CC(C)(C)c2cc(F)ccc21)NC(=O)O[C@@H](CS(=O)(=O)Cc1ccccc1)C(=O)N1CCOCC1",
    "Subject Of Test": "Cathepsin K (Homo sapiens, UniProt P43235)",
    "Experimental Endpoint": "Selectivity for Cat. S over Cat. K",
    "Test Value": "+ (+, >10)"
  },
  {
    "Compound": "O=C(N[C@@H](CCc1ccccc1)CNc1ccc(OC(F)(F)F)cc1)[C@H](CCC1CCCC1)CC(=O)N1CCOCC1",
    "Subject Of Test": "Cathepsin K (Homo sapiens, UniProt P43235)",
    "Experimental Endpoint": "Selectivity for Cat. S over Cat. K",
    "Test Value": "++ (++, >100)"
  },
  {
    "Compound": "CC[C@@H](CNc1ccc(OC(F)(F)F)cc1)NC(=O)[C@H](CCC1CCCC1)CC(=O)N1CCOCC1",
    "Subject Of Test": "Cathepsin K (Homo sapiens, UniProt P43235)",
    "Experimental Endpoint": "Selectivity for Cat. S over Cat. K",
    "Test Value": "++ (++, >100)"
  },
  {
    "Compound": "O=C(NCCNc1ccc(OC(F)(F)F)cc1)[C@@H](CC(=O)N1CCOCC1)CC1CCCCC1",
    "Subject Of Test": "Cathepsin K (Homo sapiens, UniProt P43235)",
    "Experimental Endpoint": "Selectivity for Cat. S over Cat. K",
    "Test Value": "++ (++, >100)"
  },
  {
    "Compound": "O=C(N[C@H](CNc1ccc(OC(F)(F)F)cc1)C1CC1)[C@@H](CC(=O)N1CCOCC1)c1ccc(C(F)(F)F)cc1",
    "Subject Of Test": "Cathepsin K (Homo sapiens, UniProt P43235)",
    "Experimental Endpoint": "Selectivity for Cat. S over Cat. K",
    "Test Value": "++ (++, >100)"
  }
]

Under Cathepsin K (Homo sapiens, UniProt P43235): Selectivity for Cat. S over Cat. K value of "COc1ccc(NC[C@H](C)NC(=O)[C@H](CC2CCCCC2)NC(=O)N2CCOCC2)cc1" ? ++ (++, >100)

* * *

Subject Of Test: Cathepsin S (Homo sapiens)
Experiment Notes: Cathepsin S inhibition, fluorogenic peptide substrate kinetic assay
Type: biochemical
Run Conditions: Cathepsin S inhibition constant; pH5.5, 20 minutes preincubation at room temperature; read-out: Ki Cat. S
pKi: −log10 of the molar value.
Experimental Endpoint: pKi

Worked cases, pKi given:
[
  {
    "Compound": "C[C@@H](CN1c2ccc(F)cc2CC1(C)C)NC(=O)O[C@@H](CC1CCCCC1)C(=O)N1CCN(S(C)(=O)=O)CC1",
    "Subject Of Test": "Cathepsin S (Homo sapiens)",
    "Test Value": "5.00 to 6.00"
  },
  {
    "Compound": "Cc1cc(NC[C@H](C)NC(=O)[C@H](CC2CCCCC2)NC(=O)N2CCOCC2)no1",
    "Subject Of Test": "Cathepsin S (Homo sapiens)",
    "Test Value": "6.00 to 7.00"
  },
  {
    "Compound": "COc1ccc([C@H](CC(=O)N2CCOCC2)C(=O)N[C@@H](C)CNc2ccc(OC(F)(F)F)cc2)cc1",
    "Subject Of Test": "Cathepsin S (Homo sapiens)",
    "Test Value": "6.00 to 7.00"
  },
  {
    "Compound": "O=C(NCCN1CCc2cc(F)ccc21)[C@H](CC1CCCCC1)NC(=O)N1CCOCC1",
    "Subject Of Test": "Cathepsin S (Homo sapiens)",
    "Test Value": "> 7.00"
  },
  {
    "Compound": "O=C(NCCN1CCc2cc(F)ccc21)[C@H](CC1CCCCC1)OC(=O)N1CCOCC1",
    "Subject Of Test": "Cathepsin S (Homo sapiens)",
    "Test Value": "5.00 to 6.00"
  }
]

Form field - read-out: pKi; system: Cathepsin S (Homo sapiens); submitted item: "C[C@@H]1CN(C(=O)[C@H](CC2CCCCC2)OC(=O)N[C@@H](C)CN2c3ccc(F)cc3CC2(C)C)C[C@H](C)O1" 5.00 to 6.00

Proceed to CC(C)[C@@H](CN1CC(C)(C)c2cc(F)ccc21)NC(=O)OC(C(=O)N1CCOCC1)c1ccccc1 (mixture of isomers) 5.00 to 6.00

* * *

Listed here are compounds together with their documented pKi.
Subject Of Test: Cathepsin S (Homo sapiens, UniProt P25774)
Sequence (P25774 115-331, species assumed): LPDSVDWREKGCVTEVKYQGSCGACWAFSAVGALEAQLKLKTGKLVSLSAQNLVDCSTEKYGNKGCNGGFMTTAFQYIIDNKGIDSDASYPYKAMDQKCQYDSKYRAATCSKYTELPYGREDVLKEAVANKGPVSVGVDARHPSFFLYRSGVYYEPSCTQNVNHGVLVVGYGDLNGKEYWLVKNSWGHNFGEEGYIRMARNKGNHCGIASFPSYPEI
Experiment Notes: Cathepsin S inhibition, fluorogenic peptide substrate kinetic assay;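 note: cleavage rate of a coumarin-labelled peptide substrate (50 µM) read as fluorescence increase at Ex 380 nm and Em 450 nm, relative to inhibitor-free control reactions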
Format: biochemical
Run Conditions: Cathepsin S inhibition constant; pH5.5, 20 minutes preincubation at room temperature; read-out: Ki Cat. S
pKi: −log10 of the molar value.

Solved cases (4 shown):
[
  {
    "Compound": "C[C@@H](CNc1nc2ccccc2s1)NC(=O)[C@H](CC1CCCCC1)NC(=O)N1CCOCC1 [Example 78]",
    "Test Value": "5.00 to 6.00"
  },
  {
    "Compound": "CC(C)[C@@H](CNc1cccnc1)NC(=O)[C@H](CC1CCCCC1)NC(=O)N1CCOCC1 [Example 76]",
    "Test Value": "6.00 to 7.00"
  },
  {
    "Compound": "O=C(N[C@H](CNc1ccc(OC(F)(F)F)cc1)c1ccccc1)[C@H](CCC1CCCC1)CC(=O)N1CCOCC1 [Example 46]",
    "Test Value": "> 7.00"
  },
  {
    "Compound": "CC(C)[C@@H](CN1CC(C)(C)c2cc(F)ccc21)NC(=O)[C@@H](CC(=O)N1CCOCC1)c1ccc(C(F)(F)F)cc1 [Example 68]",
    "Test Value": "> 7.00"
  }
]

May I ask what pKi has been recorded for C[C@@H](CNc1ccc(OC(F)(F)F)cc1)NC(=O)[C@@H](CC(=O)N1CCOCC1)CC1CCC2(CC1)CC2 [Example 65] ? 6.00 to 7.00

* * *

Subject Of Test: UniProt P43235
Experiment Notes: Cathepsin K inhibition, fluorogenic peptide substrate kinetic assay (selectivity)
Format: biochemical
Run Conditions: ratio of cathepsin K inhibition constant to cathepsin S inhibition constant
Experimental Endpoint: Selectivity for Cat. S over Cat. K

[
  {
    "Molecule": "C[C@@H](CNc1ccc(OC(F)(F)F)cc1)NC(=O)[C@H](CCC1CCCCC1)CC(=O)N1CCOCC1 [Example 21]",
    "Test Value": "++ (++, >100)"
  },
  {
    "Molecule": "CC[C@@H](CNc1ccc(OC(F)(F)F)cc1)NC(=O)[C@H](CC1CCCCC1)NC(=O)N1CCOCC1 [Example 75]",
    "Test Value": "+ (+, >10)"
  },
  {
    "Molecule": "Cc1cc(NCCNC(=O)[C@H](CCC(C)(C)C)CC(=O)N2CCOCC2)no1 [Example 49]",
    "Test Value": "+ (+, >10)"
  },
  {
    "Molecule": "C[C@@H](CNc1ccc(OC(F)(F)F)cc1)NC(=O)[C@@H](CC(=O)N1CCOCC1)c1ccccc1 [Example 61]",
    "Test Value": "+ (+, >10)"
  },
  {
    "Molecule": "O=C(NCCN1CCc2cc(F)ccc21)[C@H](CC1CCCCC1)NC(=O)N1CCOCC1 [Example 2]",
    "Test Value": "++ (++, >100)"
  },
  {
    "Molecule": "COc1ccc(NCCNC(=O)[C@@H](CC(=O)N2CCOCC2)CC2CCCCC2)cc1 [Example 19]",
    "Test Value": "++ (++, >100)"
  }
]

Proceed to the following item.
For the molecule COc1ccc(NC[C@H](C)NC(=O)[C@H](CC2CCCC2)NC(=O)N2CCOCC2)cc1 [Example 73] , what Selectivity for Cat. S over Cat. K is on record? + (+, >10)

// provenance: patent US7732449B2
